Each recorded value in this set is attributed to the supplement of paper PMC13380429.

# System: Calu-3
# protocol.text: drug sensitivity score (DSS) for viability; higher = more toxic; extreme values may be limits of the assay
# condition.notes: 72 h
reported.property: drug sensitivity score
Field format: numeric only.

INPUT: Give its drug sensitivity score value. Item: Nc1nnc(Sc2ncc([N+](=O)[O-])s2)s1
OUTPUT: 1.8

INPUT: And then COc1cccc(-c2ccc([C@@H](Oc3cc(-c4ccc(C[C@H](N)C(=O)O)cc4)nc(N)n3)C(F)(F)F)cc2)c1 , what is it?
OUTPUT: 0

INPUT: Can you handle CCc1ccc(C(=O)C(C)CN2CCCCC2)cc1 (stereo not drawn) next?
OUTPUT: 0

INPUT: Thanks! And CO/N=C(\C(=O)N[C@@H]1C(=O)N2C(C(=O)[O-])=C(C[n+]3ccn4ncccc43)CS[C@H]12)c1nsc(N)n1 ?
OUTPUT: 0

INPUT: Entry to check: O=C(O)/C=C/c1ccc(Cn2ccnc2)cc1
OUTPUT: 0

INPUT: Same question, NC1=N[C@@](c2cccc(-c3cncnc3)c2)(c2ccnc(C(F)F)c2)c2cccc(F)c21 this time
OUTPUT: 0

INPUT: For Cc1cc(C)c(N(Cc2ccccc2)S(=O)(=O)c2ccc(OCCNC(=O)c3cc4ccccc4o3)cc2)c(C(=O)NO)c1 then?
OUTPUT: 1.1

INPUT: Next compound up: NC(=O)c1cc([N+](=O)[O-])cc([N+](=O)[O-])c1 [nitromide]
OUTPUT: 0
